# protocolText: CREB reporter modulators under forskolin, primary screen, cell-based, PC12, CRE-LacZ reporter, forskolin-stimulated (AID 1146);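 note: PC12 cells with 6xCRE LacZ reporter stimulated by forskolin 10 µM; beta-galactosidase reporter signal reflecting CREB driven transcription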
# testConditions: luminescence, 4.5 h, higher = more signal, called active from +8 up or from −8 down
So I've got a bunch of compounds here, and I need their z-score values.
Please state the value as a number alone, without comment.

What value of z-score has been reported for the following compound? `Cc1c(NC(=O)/C(C#N)=C/C=C/c2ccc(N(C)C)cc2)c(=O)n(-c2ccccc2)n1C`
-1.4

What value of z-score has been reported for the following compound? `CO[C@H]1O[C@H](CO)[C@@H](OC(=O)Nc2ccc(C(F)(F)F)cc2)[C@H](OC(=O)Nc2ccc3c(c2)OCO3)[C@H]1OC(=O)Nc1ccc2c(c1)OCO2`
1.38

What value of z-score has been reported for the following compound? `COCCOC(=O)N1C(=O)[C@@]2(c3cc(C#CC4(O)CCCCCC4)ccc31)[C@H](C(N)=O)[C@H]1C(=O)O[C@H](c3ccccc3)[C@H](c3ccccc3)N1[C@@H]2c1ccc(O)cc1`
3.59

What value of z-score has been reported for the following compound? `CCCC=C(CCC)[C@@H](NP(=O)(c1ccccc1)c1ccccc1)c1ccc(C(F)(F)F)cc1`
0.0568

What value of z-score has been reported for the following compound? C[C@]12C(=O)N(CCCCCCO)[C@@H]3C(=O)N(c4ccc(Cl)cc4)CC=CC31O[C@@H]1/C=C\CCCOC(=O)C12 (some centres not stated)
-0.475

What value of z-score has been reported for the following compound? `NCCCCCNC(=O)[C@@H]1C[C@@H]2C(=O)N[C@@H](CCCCN)C(=O)N2[C@@H]1c1cccc(OCCO)c1`
-0.304

What value of z-score has been reported for the following compound? `O=C1O[C@H](c2ccccc2)[C@H](c2ccccc2)N2[C@H]1[C@@H](C(=O)O)[C@]1(C(=O)Nc3ccccc31)[C@H]2c1ccc(O)cc1`
-0.763

---

# protocolText: basal 3T3-L1 adipocyte mitochondrial potential changes, profiling panel, cell-based, JC-1 fluorescence, 3T3-L1 adipocytes, 24 h, 100 nL compound (AID 1168); note: test concentration not given here
# testConditions: JC-1 mitochondrial fluorescence, higher = more signal, called active from +8 up or from −8 down
Activity calls are given as the source filed them.
So I've got a bunch of compounds here, and I need their z-score values.

What value of z-score has been reported for the following compound? `COC(=O)[C@@]1(Cc2ccc(F)cc2)[C@H]2c3cc(C(=O)N4CCCC4)n(CCF)c3C[C@H]2CN1C(=O)c1ccccc1`
-0.000991 (inactive)

What value of z-score has been reported for the following compound? `COc1ccc([Si](C)(C)[C@@H]2[C@@H](CC(=O)N3CCC[C@H]3CO)O[C@]3(C(=O)N(Cc4ccc(N5C(=O)c6cccc7cccc5c67)cc4)c4ccccc43)[C@H]2C)cc1`
-0.209 (inactive)

What value of z-score has been reported for the following compound? CC(C)C(O)C1C=CC2C(=O)N(C)C(=O)C2N1Nc1ccccc1 (stereo not drawn)
-1.15 (inactive)

What value of z-score has been reported for the following compound? COc1ccc(NN2C(C(O)c3ccco3)C=CC3C(=O)N(C4CCCCC4)C(=O)C32)cc1 (stereo not drawn)
-1.23 (inactive)

What value of z-score has been reported for the following compound? COC(=O)C1(Cc2ccccc2)C=C2C(=C(c3ccccc3)C(=O)C2C)CN1 (stereo not drawn)
-1.12 (inactive)

What value of z-score has been reported for the following compound? `CC(C)(C)OC(=O)CC[C@@]1(C(=O)O)N=C(c2ccc(OCCCO)cc2)O[C@@H]1c1ccccc1CN=[N+]=[N-]`
-0.913 (inactive)

What value of z-score has been reported for the following compound? `COCC(=C=CC[C@H](O)c1cccc(OCCO)c1)C[C@H](O)c1ccccn1`
1.49 (inactive)

What value of z-score has been reported for the following compound? `C=C(CCCC)C(=O)CC[C@@H](OC(=O)c1cccnc1)c1ccccc1OCCO`
0.361 (inactive)

Cited source for all entries: PubChem BioAssay
